- System: Escherichia coli
- experimental_parameters: Concentration 32 ug.mL-1;; ASSAY_TEST Inhibition of Bacterial Growth; detection method Absorption (OD600); MEDIA CAMHB; plate type 384well; NBS; CORNING #3640; time 18 hr
- Description: Antibacterial activity against Escherichia coli ATCC 25922 (CO-ADD:GN_001); MIC in CAMBH media using NBS plates, by OD(600)
Results with a measured potency or affinity are listed apart.
Exercise: state measured Inhibition for each of the compounds provided.
Write the value in % as a bare number.

Give the measured Inhibition for Cc1ccc(CSc2nnc3c(=O)n(-c4ccc(Br)cc4)ccn23)cc1
-2.08

Please report the measured Inhibition for O=S(=O)(c1cccn2cnnc12)N(Cc1cccc(F)c1)c1cccc(Cl)c1
-7.43

# return recorded Inhibition for entry CC(C)CCn1c(=O)c2ccc(C(=O)NC3CCCCC3)cc2n2c(=O)n(CC#N)nc12
-7.09

Given the compound Cc1cc2nn(CC(=O)Nc3cccc(C)c3C)c(=O)n2c(Nc2ccc(C)c(F)c2)n1 , write its reported Inhibition.
-3.18

Using the record for O=C(CSc1nc2ccccc2n2cnnc12)Nc1ccc2c(c1)OCO2 , state its measured Inhibition.
-3.46

* * *

- Test system: Escherichia coli
- experimental_parameters: Concentration 32 ug.mL-1;; ASSAY_TEST Inhibition of Bacterial Growth; detection method Absorption (OD600); MEDIA CAMHB; plate type 384well; NBS; CORNING #3640; time 18 hr
Results with a measured potency or affinity are listed apart.
reported_endpoint: Inhibition (%)
Form entry: value (%) — number only.

Check the records and state Inhibition for CCc1ccc(N(Cc2ccc(F)cc2)S(=O)(=O)c2cccn3c(CC)nnc23)cc1
-4.69

Look up and state reported Inhibition for CC(C)c1ccc(Oc2nc3ccccc3n3c(=O)n(CC(=O)Nc4ccc5c(c4)OCO5)nc23)cc1
4.92

Provide Inhibition value for the following compound: COc1ccc(N2CCN(C(=O)Cn3nc4c(Oc5ccccc5)nccn4c3=O)CC2)cc1
4.58

Indicate its recorded Inhibition; the compound in question is C=Cc1ccc(CN(c2ccc(CC)cc2)S(=O)(=O)c2cccn3c(C)nnc23)cc1
-2.55

Indicate the recorded Inhibition value for this compound: O=C(Cn1nc2c3sc(N4CCCC4)nc3ncn2c1=O)Nc1cccc(Br)c1
2.84

Please give the documented Inhibition of CCOc1ccc(NC(=O)Cn2nc3c(Oc4ccc(C)cc4)nccn3c2=O)cc1
-4.41

# return recorded Inhibition for input COc1ccc(NC(=O)CSc2nnc3c(=O)n(-c4ccccc4)ccn23)cc1
-6.17

Kindly indicate its recorded Inhibition. Item: COC(=O)c1ccc(Cn2nc3ccc(S(=O)(=O)N4CCCCCC4)cn3c2=O)o1
-1.2

Identify measured Inhibition corresponding to COc1ccc(CNC(=O)CCc2nnc3c4cc(-c5ccc(Cl)cc5)nn4ccn23)cc1OC
1.66

* * *

- System: Staphylococcus aureus
- experimental_parameters: Concentration 32 ug.mL-1;; ASSAY_TEST Inhibition of Bacterial Growth; detection method Absorption (OD600); MEDIA CAMHB; plate type 384well; NBS; CORNING #3640; time 18 hr
- Description: Antibacterial activity against Staphylococcus aureus MRSA ATCC 43300 (CO-ADD:GP_020); MIC in CAMBH media, using NBS plates, by OD(600)
Measured potencies and affinities stand elsewhere.
reported_endpoint: Inhibition (%)
Numeric only. Scale: %

Look up Inhibition of COc1ccc(NC(=O)Cn2nc3ccc(-c4ccccc4)nn3c2=O)cc1OC and report it.
0.84

Report Inhibition for COc1ccc(Cl)cc1NC(=O)Cn1nc2ccc(Sc3ccccc3)nn2c1=O
-3.52

Dear colleague, please send me the reported Inhibition for O=c1n(Cc2nc(-c3ccc(F)cc3)no2)nc2ccc(-c3ccccc3)nn12 when you can.
3.21

Specify reported Inhibition for the molecule shown: Cc1cc(C)c(NC(=O)Cn2nc3ccc(Sc4cccc(F)c4)nn3c2=O)c(C)c1
3.74

Return Inhibition for the following molecule: Cc1ccc(CNC(=O)Cn2nc3ccc(SCc4ccc(Cl)cc4)nn3c2=O)cc1
11.66

Kindly indicate its recorded Inhibition. Item: O=c1c2sccc2n2c(SCc3cccc(C(F)(F)F)c3)nnc2n1Cc1cccs1
3.6

Annotate the molecule Cc1cccc(Cn2nc3c(=O)n(-c4cccc(Cl)c4C)ccn3c2=O)c1 with its measured Inhibition.
-1.78

Answer with the recorded Inhibition of CCCCNC(=O)Cn1nc2n(Cc3ccco3)c(=O)c3sccc3n2c1=O only.
2.23

Recall and state the measured Inhibition for COc1ccc(-c2cc3c4nn(CC(=O)Nc5cc(OC)cc(OC)c5)c(=O)n4ccn3n2)cc1 .
-11.7

Given COc1cccc(NC(=O)Cn2c(=O)c3nnc(C(C)C)n3c3ccccc32)c1 , respond with its Inhibition.
22.3

Determine its reported Inhibition: CCc1nnc2c(S(=O)(=O)N(Cc3ccc(F)cc3)c3ccc(Cl)cc3)cccn12
8.89

Please give measured Inhibition of the following entry: Cc1ccc(-c2ccc3nn(CC(=O)Nc4ccccc4)c(=O)n3n2)cc1C
3.99

Indicate its recorded Inhibition; the molecule in question is Cc1cc(C)c(NC(=O)Cn2nc3c(Sc4cccc(F)c4)nccn3c2=O)c(C)c1
9.93

Kindly indicate its recorded Inhibition. Item: O=C(Cn1nc2nc(Nc3ccc(F)cc3)ccn2c1=O)Nc1ccc(F)cc1
-16.48

Dear colleague, please send me the reported Inhibition for CN(C)c1nc2ccccc2n2c(=O)n(CC(=O)Nc3ccc4c(c3)OCO4)nc12 when you can.
1.33

Identify the reported Inhibition for the following entry. COc1cccc(Oc2nccn3c(=O)n(CC(=O)Nc4cccc(Br)c4)nc23)c1
9.05

Give me measured Inhibition, please, for this molecule: COc1cccc(NC(=O)Cn2nc3c(Sc4ccccc4)nccn3c2=O)c1
6.76

Please report the measured Inhibition for CC(C)c1nnc2c(=O)n(CC(=O)Nc3ccc(Br)cc3F)c3ccccc3n12
7.11

Give the measured Inhibition for COC(=O)c1cccc(NC(=O)Cn2nc3c(N4CCC(C)CC4)nccn3c2=O)c1
-12.03

Could you please provide reported Inhibition for COc1ccc(NC(=O)Cn2nc3nc(Nc4ccc(F)cc4)ccn3c2=O)cc1Cl ? Thanks!
5.78

Give the reported value of Inhibition for this record: Cc1ccc(-c2ccc3nn(Cc4cccc(Cl)c4)c(=O)n3n2)cc1C
8.16

Hello, please tell me recorded Inhibition for this one: CCc1ccc(N(Cc2ccccc2C)S(=O)(=O)c2cccn3c(C)nnc23)cc1
9.52

Item CC(C)c1nnc2c(SCC(=O)Nc3cccc(Cl)c3)nc3ccccc3n12 : provide Inhibition
8.54

Quickly give me recorded Inhibition for COc1ccc(NC(=O)Cn2nc3nc(N4CCOCC4)ccn3c2=O)cc1Cl
7.8

Supply recorded Inhibition for Cc1oc(-c2cccc(Cl)c2)nc1CSc1nc2ccccc2n2c(C(C)C)nnc12 here.
3.52

Give me measured Inhibition, please, for this molecule: COc1ccc(CNC(=O)Cn2nc3c(Oc4ccccc4C)nccn3c2=O)cc1
1.68

Consider the molecule O=c1n(Cc2ccccc2F)nc2ccc(S(=O)(=O)N3CCCCCC3)cn12 and give its recorded Inhibition.
2.98

Look up Inhibition of Cc1cc(C)cc(N(Cc2ccccc2F)S(=O)(=O)c2cccn3c(C)nnc23)c1 and report it.
15.31

Specify Inhibition for Cc1ccc(-c2cc3c4nn(CC(=O)N5CCN(c6ccccc6F)CC5)c(=O)n4ccn3n2)cc1C and stop.
8.03

Query Inhibition for COC(=O)c1ccccc1NC(=O)Cn1nc2c3sc(N4CCCC4)nc3ncn2c1=O
6.17

Identify the reported Inhibition for the following entry. CCc1nnc2c(S(=O)(=O)N(Cc3cccc(F)c3)c3ccccc3)cccn12
7.57

Answer with the recorded Inhibition of COc1cc(NC(=O)Cn2nc3c(N4CCCC4)nccn3c2=O)cc(OC)c1 only.
5.55

Specify reported Inhibition for the molecule shown: Cc1cccc(Oc2nc3ccccc3n3c(=O)n(CC(=O)Nc4ccc5c(c4)OCCO5)nc23)c1C
10.6

Quickly give me recorded Inhibition for O=S(=O)(c1ccc2nncn2c1)N(Cc1cccc(Cl)c1)c1ccc2c(c1)OCO2
4.03

Write down Inhibition measured for item COc1cc(OC)c(NC(=O)Cn2nc3ccc(-c4ccc(C)c(C)c4)nn3c2=O)cc1Cl
2.47

Assign Inhibition to the following record: O=C(Cn1nc2c3cc(-c4ccc(F)cc4)nn3ccn2c1=O)Nc1ccc2c(c1)OCCO2
10.64

Tell me its Inhibition given CCOc1ccc(NC(=O)Cn2nc3c(N4CCCC(C)C4)nccn3c2=O)cc1 (centres undefined) as the entry.
4.96

Tell me measured Inhibition for CC(=O)c1ccc(NC(=O)Cn2c(=O)c3nnc(C(C)C)n3c3ccccc32)cc1 please.
5.44

Please give measured Inhibition of the following entry: Cc1cc(C)cc(NC(=O)CSc2nnc3c(=O)n(-c4ccc(Br)cc4)ccn23)c1
9.26

The origin of these recorded values is ChEMBL document CHEMBL4513146.
